- Tested on: HCC1806
- assay summary: relative cell viability vs DMSO control (% of DMSO control); higher = less growth inhibition (higher viability)
- test settings: 0.03 µM; treatment time: 72 h
Kindly state relative cell viability for each of the entries shown.
No unit in the answer, only the number.

Q: Indicate its recorded relative cell viability; the molecule in question is "Cc1nc(Nc2n[nH]c3c2CN(C(=O)N[C@H](CN(C)C)c2ccccc2)C3(C)C)c2sccc2n1"
A: 36.2

Q: Indicate its recorded relative cell viability; the molecule in question is "C[C@@H](NC(=O)c1ncnc(N)c1Cl)c1ncc(C(=O)Nc2cc(C(F)(F)F)c(Cl)cn2)s1"
A: 103

Q: Indicate its recorded relative cell viability; the molecule in question is "Cn1nccc1Nc1nccc(-c2ccn([C@H](CO)c3ccc(Cl)c(F)c3)c(=O)c2)n1"
A: 92

Q: Indicate its recorded relative cell viability; the molecule in question is "CN1CCN(c2nc(C3=C(c4c[nH]c5ccccc45)C(=O)NC3=O)c3ccccc3n2)CC1"
A: 100

Q: Indicate its recorded relative cell viability; the molecule in question is "C[C@]12O[C@H](C[C@]1(O)CO)n1c3ccccc3c3c4c(c5c6ccccc6n2c5c31)CNC4=O"
A: 43.6

Q: Indicate its recorded relative cell viability; the molecule in question is COC(=O)[C@@]1(O)C[C@H]2O[C@]1(C)n1c3ccccc3c3c4c(c5c6ccccc6n2c5c31)C(=O)NC4 [K-252a]
A: 75.8

Q: Indicate its recorded relative cell viability; the molecule in question is "CN[C@@H]1C[C@H]2O[C@@](C)([C@@H]1OC)n1c3ccccc3c3c4c(c5c6ccccc6n2c5c31)C(=O)N[C@H]4O"
A: 36.7
